Values from patent US8134015B2

Each entry below lists one item and its recorded pIC50 value.
TESTED TARGET: rat NaPi-2b (Rattus norvegicus, UniProt Q9JJ09)
Sequence (Q9JJ09 whole entry): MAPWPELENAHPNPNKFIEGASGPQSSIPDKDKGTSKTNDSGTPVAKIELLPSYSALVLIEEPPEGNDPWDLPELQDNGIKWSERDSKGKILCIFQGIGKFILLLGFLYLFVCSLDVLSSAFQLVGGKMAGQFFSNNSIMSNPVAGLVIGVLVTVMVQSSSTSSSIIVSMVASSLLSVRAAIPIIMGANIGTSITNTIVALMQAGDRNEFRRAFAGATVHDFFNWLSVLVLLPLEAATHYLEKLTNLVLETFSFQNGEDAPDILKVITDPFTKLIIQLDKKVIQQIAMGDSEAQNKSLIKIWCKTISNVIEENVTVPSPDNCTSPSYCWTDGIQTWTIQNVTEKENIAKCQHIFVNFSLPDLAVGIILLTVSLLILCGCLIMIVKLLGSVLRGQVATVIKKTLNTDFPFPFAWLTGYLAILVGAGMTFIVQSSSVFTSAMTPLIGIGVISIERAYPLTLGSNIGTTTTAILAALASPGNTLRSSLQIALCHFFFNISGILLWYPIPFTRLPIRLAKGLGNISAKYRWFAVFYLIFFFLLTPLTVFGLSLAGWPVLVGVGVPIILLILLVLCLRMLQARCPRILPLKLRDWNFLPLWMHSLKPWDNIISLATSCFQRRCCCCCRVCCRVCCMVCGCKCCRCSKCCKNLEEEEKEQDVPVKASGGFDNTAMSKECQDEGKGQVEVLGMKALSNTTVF
METHOD DESCRIPTION: Sodium-dependent phosphate uptake of Xenopus oocytes which expressed NaPi-2b (32P)
STATED CONDITIONS: Xenopus oocytes expressing rat NaPi-2b, 32P radioactive phosphorus; read-out: IC50 (phosphate uptake inhibitory activity)
pIC50: −log10 of the molar value.
QUANTITY NAME: pIC50

- COMPOUND: "Cc1ccc(/C=N/NC(=O)c2cc(Cl)ccc2NC(=O)c2cccc(CSc3nnnn3CCN(C)C)c2)cc1C"
  QUANTITY NAME: "pIC50"
  RELATION OPERATOR: ">"
  ENDPOINT VALUE: 5.52
- COMPOUND: "Cc1ccc(/C=N/NC(=O)c2cc(Br)ccc2NC(=O)c2ccc(CSc3ccncc3)cc2)cc1"
  QUANTITY NAME: "pIC50"
  RELATION OPERATOR: ">"
  ENDPOINT VALUE: 5.52
- COMPOUND: "Cc1ccc(/C=N/NC(=O)c2cc(I)ccc2NC(=O)c2cccc(CN3CCC(N4CCCCC4)CC3)c2)cc1"
  QUANTITY NAME: "pIC50"
  RELATION OPERATOR: ">"
  ENDPOINT VALUE: 5.52
- COMPOUND: "O=C(Nc1ccc(Br)cc1C(=O)N/N=C/c1ccc(Cl)c(C(F)(F)F)c1)c1ccccn1"
  QUANTITY NAME: "pIC50"
  RELATION OPERATOR: "="
  ENDPOINT VALUE: 6.46
- COMPOUND: "O=C(Nc1ccc(Br)cc1C(=O)N/N=C/c1cccc(F)c1)c1ccncc1"
  QUANTITY NAME: "pIC50"
  RELATION OPERATOR: "="
  ENDPOINT VALUE: 4.56
- COMPOUND: "CN(CCCCCCN(C)Cc1cccc(C(=O)Nc2ccc(Cl)cc2C(=O)N/N=C/c2ccc(Cl)c(C(F)(F)F)c2)c1)Cc1cccc(C(=O)Nc2ccc(Cl)cc2C(=O)N/N=C/c2ccc(Cl)c(C(F)(F)F)c2)c1"
  QUANTITY NAME: "pIC50"
  RELATION OPERATOR: "="
  ENDPOINT VALUE: 4.06
- COMPOUND: "Cc1ccc(/C=N/NC(=O)c2c(NC(=O)c3cccc(CN4CCN(CCO)CC4)c3)sc3c2CCCC3)cc1C"
  QUANTITY NAME: "pIC50"
  RELATION OPERATOR: ">"
  ENDPOINT VALUE: 5.52
- COMPOUND: "CCN(CC)CCN(C)Cc1cccc(C(=O)Nc2ccc(I)cc2C(=O)N/N=C/c2ccc(OC)cc2)c1"
  QUANTITY NAME: "pIC50"
  RELATION OPERATOR: ">"
  ENDPOINT VALUE: 5.52
- COMPOUND: "O=C(Nc1ccc(N2CCCCC2)cc1C(=O)N/N=C/c1cccc(F)c1)c1cccc(CN2CCC(O)CC2)c1"
  QUANTITY NAME: "pIC50"
  RELATION OPERATOR: "="
  ENDPOINT VALUE: 6.18
- COMPOUND: "O=C(Nc1ccc(Br)cc1C(=O)N/N=C/c1cccc(F)c1)c1ccc(CN2CCN(CCO)CC2)cc1"
  QUANTITY NAME: "pIC50"
  RELATION OPERATOR: "="
  ENDPOINT VALUE: 5.39
- COMPOUND: "O=C(Nc1sc2c(c1C(=O)N/N=C/c1ccc(F)cc1)CCCC2)c1cccc(CSCCCO)c1"
  QUANTITY NAME: "pIC50"
  RELATION OPERATOR: "="
  ENDPOINT VALUE: 6.00
- COMPOUND: "CCN(CC)CCN(C)Cc1cccc(C(=O)Nc2ccc(OCCOC)cc2C(=O)N/N=C/c2cccc(F)c2)c1"
  QUANTITY NAME: "pIC50"
  RELATION OPERATOR: "="
  ENDPOINT VALUE: 5.24
- COMPOUND: "COc1ccc(/C=N/NC(=O)c2c(NC(=O)c3cccc(CN4CCC(CO)CC4)c3)sc3c2CCC3)cc1"
  QUANTITY NAME: "pIC50"
  RELATION OPERATOR: "="
  ENDPOINT VALUE: 4.75
- COMPOUND: "COc1cc(/C=N/NC(=O)c2cc(N3CCOCC3)ccc2NC(=O)c2ccc(OC)c(OC)c2)ccc1O"
  QUANTITY NAME: "pIC50"
  RELATION OPERATOR: "="
  ENDPOINT VALUE: 4.51
- COMPOUND: "O=C(Nc1ccc(OCCN2CCCCC2)cc1C(=O)N/N=C/c1ccc(Cl)c(C(F)(F)F)c1)c1cccc(CSCCO)c1"
  QUANTITY NAME: "pIC50"
  RELATION OPERATOR: "="
  ENDPOINT VALUE: 5.67
- COMPOUND: "O=C(Nc1ccccc1C(=O)N/N=C/c1cccc(O)c1)c1cccc(F)c1"
  QUANTITY NAME: "pIC50"
  RELATION OPERATOR: "="
  ENDPOINT VALUE: 5.70
- COMPOUND: "CCc1ccc(C(=O)Nc2ccc(Br)cc2C(=O)N/N=C/c2cccc(C)c2)cc1"
  QUANTITY NAME: "pIC50"
  RELATION OPERATOR: ">"
  ENDPOINT VALUE: 5.52
- COMPOUND: "Cc1ccc(/C=N/NC(=O)c2cc(Br)ccc2NC(=O)c2ccc(CN3CCN(CC(=O)N4CCOCC4)CC3)cc2)cc1C"
  QUANTITY NAME: "pIC50"
  RELATION OPERATOR: "="
  ENDPOINT VALUE: 5.61
- COMPOUND: "Cc1ccc(/C=N/NC(=O)c2cc(Br)ccc2NC(=O)c2ccccn2)cc1 [Compound 498]"
  QUANTITY NAME: "pIC50"
  RELATION OPERATOR: "="
  ENDPOINT VALUE: 6.22
- COMPOUND: "COc1ccc(/C=N/NC(=O)c2cc(Br)ccc2NC(=O)c2ccc(CN3CCC(O)CC3)cc2)cc1"
  QUANTITY NAME: "pIC50"
  RELATION OPERATOR: "="
  ENDPOINT VALUE: 4.97
